Test Summary: qHTS of small molecules that selectively kill Giardia lamblia: Hit Validation.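 Further: viability measured as ATP content by luminescence so killing lowers signal; trophozoites exposed to compounds for 48 h anaerobically at 37 °C; nearly all actives have a fitted effect of over 65% in size.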
Condition Description: Giardia lamblia trophozoite viability, dose-response; series mostly up to 38.3 µM
About 1,000 (77%) of roughly 1,300 compounds were called active. Inconclusive results (about 7%) are left out. The call rests on the fitted dose curve; in most records, active means well fitted inhibition curve with a large enough effect; inconclusive means small, poorly fitted or top-dose-only effect; inactive means no such curve, though single readings can be large or run the other way. The set was probably picked from earlier hits. The list shows a part of the results.
Possible outcomes: 1 for active, 0 for inactive

Compound	Group
Cc1nnc(SCc2ccc([N+](=O)[O-])cc2)[nH]c1=O	1
CN(C(=O)c1cc([N+](=O)[O-])ccc1NCc1cccnc1)c1ccccc1	0
O=c1/c(=C/c2ccc(O)c([N+](=O)[O-])c2)sc2nc3ccccc3n12	1
O=C(Nc1nnc(-c2ccco2)o1)c1ccc([N+](=O)[O-])s1	1
O=[N+]([O-])c1cnc2ccccn12	1
CCc1ccc(C(=O)Nc2nc3ccccc3[nH]2)cc1	1
O=C(Cc1ccc(-n2c(=O)c3sccc3n(CC(=O)Nc3ccccc3)c2=O)cc1)NCc1ccco1	0
O=C(NCc1cccnc1)c1ccc([N+](=O)[O-])o1	1
Cc1nc2c(o1)C(=O)c1ccccc1C2=Nc1ccccc1	1
CN(C)/[N+]([O-])=N/Oc1ccc([N+](=O)[O-])cn1	1
O=C(Nc1cccnc1)c1ccc([N+](=O)[O-])s1	1

====

Test Summary: qHTS of small molecules that selectively kill Giardia lamblia: Hit Validation.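 Further: viability measured as ATP content by luminescence so killing lowers signal; trophozoites exposed to compounds for 48 h anaerobically at 37 °C; nearly all actives have a fitted effect of over 65% in size.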
Condition Description: Giardia lamblia trophozoite viability, dose-response; series mostly up to 38.3 µM
Out of some 1,300 compounds screened, about 1,000 (77%) were called active. Inconclusive results (about 7%) are left out. Calls come from the whole dose curve; as a rule, active = well fitted inhibition curve with a large enough effect; inconclusive = small, poorly fitted or top-dose-only effect; inactive = no such curve, though single readings can be large or run the other way. The set was probably picked from earlier hits. Some of the results follow.
Possible outcomes: Yes = active, No = inactive

Compound	Group
Cc1ccccc1NCC(=O)N/N=C\c1ccc([N+](=O)[O-])s1	Yes
C[n+]1ccnc2ccccc21	Yes
O=C1OC(CN(Cc2ccccc2)Cc2ccccc2)CN1N=Cc1ccc([N+](=O)[O-])o1 (configuration not stated)	Yes
Cc1ccc(OCC(=O)Nc2ccc(C)c(F)c2)c([N+](=O)[O-])n1	Yes
CC(=O)O[C@@H]1[C@@H](O)CN[C@@H]1Cc1ccccc1	Yes
O=[N+]([O-])C(/C=C(\Cl)[N+](=O)[O-])=C(N1CCCCC1)N1CCCCC1	Yes
COc1ccc(C(=O)c2c3ccc([N+](=O)[O-])cc3[n+]([O-])n2CCCN)cc1	Yes
O=C1/C(=C/c2ccncc2)CCC/C1=C\c1ccncc1	Yes
Cn1c([N+](=O)[O-])cnc1COC(N)=O	Yes
Cc1cc(C(=O)N/N=C/c2ccc([N+](=O)[O-])s2)c2ccccc2n1	Yes
O=C1SCCN1N=Cc1ccc([N+](=O)[O-])o1	Yes
COc1ccc(-n2nc([N+](=O)[O-])c(=NCCC3=CCCCC3)n2O)cc1	Yes
Cc1ccc(C2=NCCn3c2c2ccc([N+](=O)[O-])cc2[n+]3[O-])cc1	Yes
CC(=O)c1c(C)n([O-])c2cc(C)ccc2[n+]1=O	Yes
CC1CS(=O)(=O)CCN1N=Cc1ccc([N+](=O)[O-])o1 (configuration not stated)	Yes
Cc1cc2ccccn2c1C(=O)c1ccc([N+](=O)[O-])cc1[N+](=O)[O-]	Yes
COc1ccc2c(c1)[n+](=O)c(C(C)=O)c(C)n2[O-]	Yes
O=C(N/N=C/c1ccc([N+](=O)[O-])s1)c1ccccc1Br	Yes
COc1ccc(-c2cc3nc[nH]c(=O)c3s2)cc1	Yes
COc1ccc(-n2nc([N+](=O)[O-])c(=NCCc3ccccc3)n2O)cc1	Yes
Cc1ccc(-c2ccc(/C=N/N3C(=O)C4C5C=CC(CC5)C4C3=O)o2)c([N+](=O)[O-])c1 (configuration not stated)	No
O=[N+]([O-])c1ccc2c3n([n+]([O-])c2c1)CCN=C3c1ccc(Cl)cc1	Yes
